System: SK-OV-3 ovarian
Test: NCI tumour cell line growth inhibition, 48 h
Kindly state TGI for each of the entries shown.
Give bare numbers, in µM.

[ask] Reported TGI for SK-OV-3 ovarian, given `COc1cnc2c(c1)C(=O)c1c-2n(CCCN2CCC(O)CC2)c(=O)c2cc(F)ccc12` ?
[reply] 0.783

[ask] Next molecule up: `O=C1c2ccccc2C(=Cc2ccccc2)c2ccccc21`
[reply] 9.05

[ask] Next molecule up: `COc1cc(/C=C/C(=O)OCCc2ccccc2)ccc1O`
[reply] 29.7

Next molecule, TGI to be filled in.
[ask] Reported TGI for SK-OV-3 ovarian, given `O=c1cc(N2CCNCC2)oc2c(-c3ccccc3)cccc12` ?
[reply] 42.2
